# Tgt: EsaR (Pantoea stewartii subsp. stewartii)
# Construct: expressed in transfected cells; host or cells: E. coli JLD271 (K12 ΔsdiA), arabinose-induced pJN105-esaR
# Sequence (P54293 whole entry): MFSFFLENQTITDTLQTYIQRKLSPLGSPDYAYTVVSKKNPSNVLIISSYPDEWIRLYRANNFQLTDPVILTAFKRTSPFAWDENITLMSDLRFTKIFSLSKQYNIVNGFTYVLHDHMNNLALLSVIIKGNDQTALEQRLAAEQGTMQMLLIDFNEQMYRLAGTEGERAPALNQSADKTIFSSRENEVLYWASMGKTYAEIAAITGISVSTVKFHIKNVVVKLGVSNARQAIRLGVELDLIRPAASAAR
# Assay Remarks: cell-based
# Experimental Parameters: 3.5 h, read-out: EsaR-repressed (pesaR) antagonism
Endpoint Label: inhibition at 100 µM (%)
Answers are plain numbers, in %.

Give inhibition at 100 µM for each of the items listed below.
1. CCCCCCCCCCCCCCCC(=O)N[C@H]1CCOC1=O [hDHL, reference compound]
2. O=C(Cc1cccc(I)c1)N[C@H]1CCOC1=O

1: -71; 2: -56

Give inhibition at 100 µM for each of the items listed below.
1. O=C(N[C@H]1CCOC1=O)c1ccccc1
2. O=C(Cc1ccccc1[N+](=O)[O-])N[C@H]1CCOC1=O
3. O=C(Cc1ccc(F)cc1)N[C@H]1CCOC1=O
4. O=C(Cc1ccccc1Br)N[C@H]1CCOC1=O
5. CSc1cccc(CC(=O)N[C@H]2CCOC2=O)c1

1. -4
2. 0
3. -50
4. -14
5. -3
